# Test system: SF-295
# testSummary: NCI tumour cell line growth inhibition, 48 h
The source made the active and inactive calls. Rule as the data show it: active = GI50 up to about 1.1 µM and inactive = higher.
A correct response names exactly one class from true (active), false (inactive)

Ask | Hi, do you know how CSc1nc(NC2OC(COC(C)=O)C(OC(C)=O)C(OC(C)=O)C2OC(C)=O)c(/N=C(\C)C(C)=O)c(=O)n1C (stereo not drawn) came out in this test?
Reply | false

Ask | Hi, do you know how `COc1ccc(Nc2nc(N)c(C(=O)c3c[nH]c4ccccc34)s2)cc1` came out in this test?
Reply | true

Ask | Hi, do you know how `COC(=O)c1cc2c3c(ccc2[nH]1)N(C(=O)c1cc2c4c(ccc2[nH]1)N(C(=O)c1cc2c5c(ccc2[nH]1)N(C(N)=O)CC5)CC4)CC3` came out in this test?
Reply | false

Further cases:
Ask | Hi, do you know how CCN1CC2=C(OC(N)=C(C#N)C2c2ccc(Cl)cc2)/C(=C/c2ccc(Cl)cc2)C1 (stereo not drawn) came out in this test?
Reply | false

Ask | Hi, do you know how CC12C3C4C1C1C2C3C41CO (stereo not drawn) came out in this test?
Reply | false

Ask | Hi, do you know how `COc1cc([C@@H]2c3cc4c(cc3[C@@H](Nc3ccc(NC(=O)c5cc(NC(=O)c6cc([N+](=O)[O-])cn6C)cn5C)cc3)[C@H]3COC(=O)[C@H]23)OCO4)cc(OC)c1O` came out in this test?
Reply | false

Ask | Hi, do you know how `COc1ccc2c(c1)OC[C@@H]1c3cc(O)c(OCc4ccccc4)cc3O[C@H]21` came out in this test?
Reply | false

Ask | Hi, do you know how COC(=O)CCC(C)[C@H]1CCC2C3C(C[C@H](OC(C)=O)[C@@]21C)[C@@]1(C)CCC2(C[C@H]1C[C@H]3OC(C)=O)OOC1(CCCC1)OO2 (stereo partly drawn) came out in this test?
Reply | false

----------
# System: NCI-H522
# testSummary: NCI tumour cell line growth inhibition, 48 h
Activity calls are given as the source filed them. No stated cut-off is given here; in the data, active = GI50 up to about 1.1 µM and inactive = higher.
A collection of compounds and their measured GI50

Solved cases below.
GI50 for `CC12ON(P(=O)(c3ccccc3)c3ccccc3)C(C)(c3ccccc31)c1ccccc12` is > 100 µM (inactive)

GI50 for NC(=O)N/N=C(\CC1OC(=O)c2ccccc21)c1ccco1 (stereo unspecified) is > 100 µM (inactive)

Further cases:
GI50 for `O=C1OC(c2ccccc2)=N/C1=C\c1ccccc1` is 42.9 µM (inactive)

GI50 for `CCCCCCCCCCCCNC(=S)OC` is 13.2 µM (inactive)

----------
# Tested on: SNB-75
# testSummary: NCI tumour cell line growth inhibition, 48 h
Active and inactive are the calls of the source. Rule as the data show it: active = GI50 up to about 1.1 µM and inactive = higher.
A correct response names exactly one class from active, inactive

Ask | Hi, do you know how `O=C1CCCCC/C1=C\c1cccc(Cl)c1` came out in this test?
Reply | inactive

Ask | Hi, do you know how `Cc1c(Cl)cc(C(C)(C)C)c(O)c1Cc1c(C)c(Cl)cc(C(C)(C)C)c1O` came out in this test?
Reply | inactive

Ask | Hi, do you know how CN(CC(=O)O)c1ncc2c(n1)-c1ccccc1OC2c1ccccc1 (stereo not given) came out in this test?
Reply | inactive

Ask | Hi, do you know how `Cc1ccc(S(=O)(=O)OCCOCCOCCOCCOCCOS(=O)(=O)c2ccc(C)cc2)cc1` came out in this test?
Reply | inactive

Ask | Hi, do you know how `COc1cccc(/C=N/C(/N=C/c2cccc(OC)c2O)c2cccc(OC)c2O)c1O` came out in this test?
Reply | inactive

Ask | Hi, do you know how `COc1cc(CNc2ccc3nc4n(c(=O)c3c2)CCCCC4)cc(OC)c1OC` came out in this test?
Reply | inactive

Ask | Hi, do you know how `O=c1oc(-c2ccc(O)c(O)c2)cc2cccc(O)c12` came out in this test?
Reply | inactive

----------
# System: MDA-N
# testSummary: NCI tumour cell line growth inhibition, 48 h
The source made the active and inactive calls. Cut-off read from the data, not from the text of the source: active = GI50 up to about 1.1 µM and inactive = higher.
valueType: GI50

Solved cases below.
GI50 for `C=CC1=C(C)c2cc3[nH]c(c4c5nc(cc6[nH]c(cc1n2)c(C=O)c6CC)C(C)=C5C(=O)[C@@H]4C(=O)OC)[C@@H](CCC(=O)O)[C@@H]3C` is > 100 µM (inactive)

GI50 for `COc1ccc2nc3cc(Cl)ccc3c(NCCCCCC(=O)NC(COc3ccc4ccc5cccnc5c4n3)COc3ccc4ccc5cccnc5c4n3)c2c1` is 23 µM (inactive)

GI50 for `CCOC(=O)c1ccc(C(=O)OCC)n1-c1cc2cc(c1)CSCc1cc(cc(-n3c(C(=O)OCC)ccc3C(=O)OCC)c1)CSC2` is > 10 µM (inactive)

GI50 for COC(=O)c1ccccc1C1CN=NC12Cc1c(C)cccc1C2=O (stereo not given) is > 100 µM (inactive)

GI50 for COC(=O)C1c2cc3c(c(O)c2C(O)CC1(C)O)C(=O)c1c(O)cc2c(c1C3=O)OC1OC2(C)C(O)C(N(C)C)C1O (stereo not given) is 1.57 µM (inactive)

GI50 for `Cc1oc2c(Cl)cc(O)c(Cl)c2c2cccc1-2` is 18.5 µM (inactive)

GI50 for `OC(c1ccc2c(c1)OCO2)c1ccc2c(c1)OCO2` is > 100 µM (inactive)

GI50 for `Nn1c(S)nnc1COc1cccc(OCc2nnc(S)n2N)c1` is > 100 µM (inactive)

Further cases:
GI50 for CN(C)CC1CCC/C(=C\c2ccccc2)C1=O (stereo not given) is 2.99 µM (inactive)

GI50 for `CC(=O)c1[nH]c(Nc2ccc(C)cc2)c(C(=S)Nc2ccccc2)c1N` is 16 µM (inactive)

----------
# Test system: NCI/ADR-RES
# testSummary: NCI tumour cell line growth inhibition, 48 h
The source made the active and inactive calls. No stated cut-off is given here; in the data, active = GI50 up to about 1.1 µM and inactive = higher.
valueType: GI50

Solved cases below.
# value of GI50, NCI/ADR-RES, item `CC(=O)OCCn1cnc2nc(Nc3ccccc3)nc(Cl)c21` = 95.3 µM (inactive)

# value of GI50, NCI/ADR-RES, item O=C(CCC(NC(=O)OCc1ccccc1)C(=O)OCc1ccccc1)Nc1cccc(OCc2ccccc2)c1 (centres undefined) = 36.2 µM (inactive)

# value of GI50, NCI/ADR-RES, item `N#C/C(N)=C(C#N)/N=C/Nc1ccc(N)cc1` = > 100 µM (inactive)

# value of GI50, NCI/ADR-RES, item `COc1ccc(/C=C/c2cnc3ccccc3n2)cc1OC` = 38.2 µM (inactive)

# value of GI50, NCI/ADR-RES, item `NN=C(S)Nc1cccc(Cl)c1` = 53.5 µM (inactive)

# value of GI50, NCI/ADR-RES, item `C/C(=N\NC(=S)Nc1ccccc1)c1nc2cccnc2[nH]1` = 3.3 µM (inactive)

Further cases:
# value of GI50, NCI/ADR-RES, item `Nc1nc(-c2ccc3ccccc3c2)cc(-c2cc(-c3ccc4ccccc4c3)nc(N)n2)n1` = > 100 µM (inactive)

# value of GI50, NCI/ADR-RES, item `Cc1oc2c(Cl)cc(O)c(Cl)c2c2cccc1-2` = 28.8 µM (inactive)

# value of GI50, NCI/ADR-RES, item `O=C1c2ccccc2C(=O)c2c(NC3CCCCC3)ccc(Nc3ccc(S(=O)(=O)O)cc3)c21` = > 100 µM (inactive)

# value of GI50, NCI/ADR-RES, item `Cc1ccc(O)c(C(c2ccc([N+](=O)[O-])cc2)c2cc(C)ccc2O)c1` = 10.7 µM (inactive)

# value of GI50, NCI/ADR-RES, item `Cc1c(Cl)cc(C(C)(C)C)c(O)c1Cc1c(C)c(Cl)cc(C(C)(C)C)c1O` = 2.14 µM (inactive)

# value of GI50, NCI/ADR-RES, item `COc1ccc(-c2ncnc(-c3ccc(OC)c(OC)c3)n2)cc1OC` = > 100 µM (inactive)

# value of GI50, NCI/ADR-RES, item CC1OC1C(=O)P(=O)(O)O (centres undefined) = > 100 µM (inactive)

# value of GI50, NCI/ADR-RES, item `O=C1C=CC(=O)c2c1cc1ccccc1c2O` = 6.18 µM (inactive)

# value of GI50, NCI/ADR-RES, item N=C(N)NCC(N)C(=O)O (centres undefined) = > 100 µM (inactive)

# value of GI50, NCI/ADR-RES, item `O=C(CCCN1CCC2(CC1)CC(=O)N(N1CCCCCC1)C2=O)c1ccc(F)cc1` = 18.2 µM (inactive)

# value of GI50, NCI/ADR-RES, item `OC(c1ccc2c(c1)OCO2)c1ccc2c(c1)OCO2` = > 100 µM (inactive)

# value of GI50, NCI/ADR-RES, item `COc1cc(OC)c2c(C)cc(=O)oc2c1` = 63.8 µM (inactive)

# value of GI50, NCI/ADR-RES, item CN(C)CC1CCC/C(=C\c2ccccc2)C1=O (centres undefined) = 10.8 µM (inactive)

# value of GI50, NCI/ADR-RES, item `O=C(O)c1nc2cc(Cl)ccc2[nH]c1=O` = > 100 µM (inactive)

# value of GI50, NCI/ADR-RES, item `COc1cccc(CCCNC(=O)Cc2cc(OC)c(OC)cc2CO)c1` = > 100 µM (inactive)

# value of GI50, NCI/ADR-RES, item O=C1c2ccccc2C2(c3ccc(Cl)cc3)N[C@H]3CCCC[C@@H]3N12 (some centres undefined) = 63 µM (inactive)

# value of GI50, NCI/ADR-RES, item O=C1Nc2ccccc2C1S(=O)(=O)c1ccccc1 (centres undefined) = > 100 µM (inactive)

# value of GI50, NCI/ADR-RES, item `C=CC1(c2ccc3ccccc3c2)OCC(CC)(CC)CO1` = 30.1 µM (inactive)
